test system: Streptococcus pyogenes; assay: Antibacterial activity against penicillin-susceptible Streptococcus pyogenes after 24 hrs by broth microdilution method; format: functional
readout-type: MIC (µg/mL)
Value expressed in µg/mL; do not type the unit.

Some entries whose results are on file:
> print(dat)
                              smiles.record  readout.type  readout.units  endpoint.value
1  C[n+]1cc2ccccc2c2cc(-c3cccc(C(F)(F)F)c3)ccc21.[Cl-]           MIC          µg/mL              16
2  C[n+]1cc2ccccc2c2cc(-c3ccc(C(F)(F)F)cc3)ccc21.[Cl-]           MIC          µg/mL               2
3  Cc1onc(-c2ccccc2)c1C(=O)N[C@@H]1C(=O)N2[C@@H]1SC(C)(C)[C@@H]2C(=O)[O-].[Na+]           MIC          µg/mL               1

Next compound, please.
Enter reported MIC observed with Streptococcus pyogenes for "C[n+]1cc2ccccc2c2cc(-c3ccccc3C(F)(F)F)ccc21.[Cl-]"
64
